system: DMS-273; test: NCI tumour cell line growth inhibition, 48 h
The source made the active and inactive calls. Rule as the data show it: active = GI50 up to about 1.1 µM and inactive = higher.
Reply using exactly one outcome from class 1 for active, class 0 for inactive

Check out these entries, answers already filled in.
COc1cc(Nc2cnc3cc(N)ccc3n2)cc(OC)c1OC: class 0
O=C(Nc1ccc(Br)cc1)C(=O)C(C(=O)c1ccccc1F)C1OC(=O)c2ccccc21 (stereo unspecified): class 0
O=c1oc(=O)c2oc3ccccc3oc1=2: class 0
O=C(O)CSc1nnc(-c2ccco2)[nH]1: class 0
CCCCCC(=O)Nc1nc(O)c2[nH]cnc2n1: class 0
COc1cc(Br)c(/C=N/N=C(\N)NO)cc1OC: class 0
Cc1cc2c(s1)C(=O)c1sccc1C2=O: class 0
CN1CCC23c4c5ccc(O)c4OC2C(=NN=C2CCC4(O)C6Cc7ccc(O)c8c7C4(CCN6C)C2O8)CCC3(O)C1C5 (stereo unspecified): class 0
COc1cc2c(c(OC)c1O)-c1ccc(SC)c(=O)cc1C(NC(C)=O)CC2 (stereo unspecified): class 1
CC(=O)OC1(C(C)=O)CC2(c3ccccc3)OC1(c1ccccc1)c1ccccc12 (stereo unspecified): class 0

Continue with the next compound.
For CC1CC(C)C(=O)C(C(=O)CC2CC(=O)NC2=O)C1 (stereo unspecified) , which call appears in the assay record?
class 0

* * *

tested on: MDA-MB-435; test: NCI tumour cell line growth inhibition, 48 h
Active and inactive are the calls of the source. No stated cut-off is given here; in the data, active = GI50 up to about 1.1 µM and inactive = higher.
MEASURE: GI50

COc1cc(/C=C/C(=O)c2ccc(NS(=O)(=O)c3cc([N+](=O)[O-])ccc3C)cc2)cc(OC)c1OC: 3.71 µM (inactive)
COc1cc(/C=C2\N=C(c3ccccc3)N(c3ccc(C(=O)c4ccccc4)cc3N3C(=O)/C(=C/c4cc(OC)c(OC)c(OC)c4)N=C3c3ccccc3)C2=O)cc(OC)c1OC: 2.85 µM (inactive)
CC(=O)OCC1OC(n2c(-c3cccs3)c3c(c(C#N)c2=S)-c2ccccc2CC3)C(OC(C)=O)C(OC(C)=O)C1OC(C)=O (centres undefined): 2.77 µM (inactive)

I have this compound here, CCOC(=O)[C@H](CO)NC1=C(Cl)C(=O)c2c(O)ccc(O)c2C1=O , and I need its recorded GI50.
> 10 µM (inactive)

// next record CC1CC/C(=C\c2ccc(Cl)cc2)C2OC(N)=C(C#N)C(c3ccc(Cl)cc3)=C12 (centres undefined)
18.4 µM (inactive)

// next record COCc1cc2c(cc1/C=C/[N+](=O)[O-])OCO2
18.3 µM (inactive)

// next record CCCCCCCCCCC(O)C1CCC(C2CCC(C(O)CCCCC(O)CCCCCC(O)CC3=CC(C)OC3=O)O2)O1 (centres undefined)
> 25 µM (inactive)

// next record NNC(=O)CCc1ccc2ccc3ccccc3c2c1
> 100 µM (inactive)

// next record CC(C)(CN1CCCCC1)C(=O)CC(SCCS(=O)(=O)O)c1ccccc1 (centres undefined)
11.3 µM (inactive)

* * *

As shown below, each of these compounds has a reported GI50 value.
system: SF-268; assay: NCI tumour cell line growth inhibition, 48 h
Calls of active or inactive are those of the source. No stated cut-off is given here; in the data, active = GI50 up to about 1.1 µM and inactive = higher.

# annotated cases, reported GI50 shown
O=[N+]([O-])c1ccccc1S(=O)(=O)c1cccc2c1NCCC2: > 100 µM (inactive)
COC(=O)CCCC(=O)O: > 100 µM (inactive)
O=C(CCN1CCC(CCO)CC1)Nc1ccc2c(c1)C(=O)c1ccc(NC(=O)CCN3CCC(CCO)CC3)cc1C2=O: 11.3 µM (inactive)
O=C1CC(c2cccc(Cl)c2)n2cccc21 (stereo not drawn): 74.6 µM (inactive)
Oc1ccc2cc(Br)ccc2c1-c1c(O)ccc2ccc(Br)cc12: 20 µM (inactive)

Below: the item to evaluate.
I have this compound here, CC(c1ccccc1)n1cncc1C(=O)NN1CCN(C)CC1 (stereo not drawn) , and I need its recorded GI50.
> 10 µM (inactive)
